- assay_target: T1, human serum albumin (human, UniProt P02768 25-609)
- T1 construct: In the mutant screen wild type HSA came from medium of transfected HeLa cells; also called HSA; wild type HSA
- T1 sequence (P02768 25-609 limits assumed): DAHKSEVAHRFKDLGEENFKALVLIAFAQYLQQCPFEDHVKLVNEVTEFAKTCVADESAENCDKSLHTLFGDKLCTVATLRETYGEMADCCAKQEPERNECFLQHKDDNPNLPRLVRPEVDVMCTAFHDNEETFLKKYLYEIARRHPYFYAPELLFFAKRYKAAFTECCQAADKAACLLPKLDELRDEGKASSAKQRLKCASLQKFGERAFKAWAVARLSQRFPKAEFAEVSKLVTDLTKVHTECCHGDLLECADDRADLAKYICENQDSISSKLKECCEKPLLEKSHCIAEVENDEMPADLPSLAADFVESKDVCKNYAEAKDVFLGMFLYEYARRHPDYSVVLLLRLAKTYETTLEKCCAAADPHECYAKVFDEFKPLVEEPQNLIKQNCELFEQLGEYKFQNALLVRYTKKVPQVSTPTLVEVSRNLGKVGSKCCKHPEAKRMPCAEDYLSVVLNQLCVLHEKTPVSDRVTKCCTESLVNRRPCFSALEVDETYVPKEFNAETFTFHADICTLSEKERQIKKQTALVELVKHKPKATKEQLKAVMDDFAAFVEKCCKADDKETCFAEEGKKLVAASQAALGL
- test_details: SPR, HSA immobilised;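 note: nanobody analytes injected as dilution series across three log units over CM5 chip with amine-coupled antigen, kinetics fitted by 1:1 Langmuir model, optionally with mass transfer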
Record form. Attribute: koff. Fill in for each entry.
Give the quantity in s⁻¹, number only.

Sure, the documented koff for H30 (VHH) VHH: HVQLVESGGGLAQAGGSLRLSCAASGGTFSNSCMGWFRQAPGMEREFVAIIRSTGHTTYADSVEGRFTVSRDIAKNTVYLEMNSLKPEDTAVYSCVAGVSDYGCYRTSGIKYWGQGTQVTVSS is 0.000168

Sure, the documented koff for H18 (VHH) VHH: EVQLVESGGGLVQAGGSLRLSCTASGPKDTPYTMGWFRQVPGKEREFVASVLWSGINTDYADSVKGRFAISRNNAKNTMYLQMNSLKPEDTAVYYCAAGYGLGFYRSISQYDYWGHGTQVTVSS is 8.71e-05

Sure, the documented koff for H14 (VHH) VHH: HVQLVESGGGLVQAGGSLRLSCTASGRTFTPYTMGWFRQAPGKEREFVASILWSGNNRDYADSVKDRFAISRDNAKNTAYLQMNSLKPEDTAVYYCAAGDGLGFYRSVNQYDYWGQGTQVTVSS is 5.57e-06

Sure, the documented koff for H3 (VHH) VHH: QVQLVESGGGLVQAGGSLRLSCVASGRTFEPFVMGWFRQAPGKEREFVATISWSGGSLSYADSVKGRFTVSRDNAKNTVYLQMNSLKPEDTAVYYCAAAPGVGNYRYTFQYDYWGQGTQVTVSE is 0.000504

Sure, the documented koff for H7 (VHH) VHH: DVQLVESGGGSVQAGGSLRLSCAASGGTFSSYAMGWYRQAPGKEREFVSGISWSGSSIDYVDSVKGRFTISRDNAKNTVYLQMNSLKPEDTAVYYCGAADPMGLGYGLGPRPVDRLLSAECDYWGQGTQVTVSS is 9.79e-05

Sure, the documented koff for H11 (VHH) VHH: QVQLVESGGGLVQVGGSLRLSCAASGRTFSNYVMGWFRQAPGKEREFVAYIHWSGSSTSYADSVKGRFTISRDNTKNTMYLQMNSLKPEDTAVYYCTADQYASTLLRAAGEYWGQGTQVTVSS is 1.55e-05

Sure, the documented koff for H28 (VHH, also called N28) VHH: DVQLVESGGGLAQAGGSLRLSCAASGRTFSNECMGWFRQAPGKEREFVATIRSTGHISYATSVQGRFTVSRDIAKNTVYLEMNNLKPEDTAVYSCGAGVSDYGCYRTSGYNYWGQGTQVTVSS is 0.00868

Sure, the documented koff for H4 (VHH) VHH: HVQLVESGGGLVQTGGSLRLACAASGRAFSTYAMGWFRQAPGKEREFVASINRSGSSTYYADSVKGRFTISRDNGKDTVYLQMNRLIPEDTAVYYCAADSEGVGFRNMLEYDYWGQGTQVTVSS is 0.000264
